target: KRAS G12D (Homo sapiens, UniProt P01116, G12D); construct: AsPc-1-KRAS (G12D)-HiBit-KI cell (Pharmaron); host or cells: AsPc-1-KRAS (G12D)-HiBit-KI cells (HiBiT knock-in at the endogenous KRAS locus); test: KRAS G12D HiBit assay; assay type: cell-based; conditions: AsPc-1-KRAS (G12D)-HiBit-KI cell, compound treatment for 24 hours, absolute DC50; class symbols
Sequence (P01116 1-188 isoform P01116-2 G12D): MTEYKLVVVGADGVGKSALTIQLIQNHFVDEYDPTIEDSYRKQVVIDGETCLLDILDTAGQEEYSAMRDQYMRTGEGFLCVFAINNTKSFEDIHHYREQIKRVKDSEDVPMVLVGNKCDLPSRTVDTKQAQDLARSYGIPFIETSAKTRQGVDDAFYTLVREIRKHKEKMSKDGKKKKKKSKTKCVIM
Recorded DC50 values for a group of molecules are listed next.

[
  {
    "MOLECULE": "CCc1c(F)ccc2cc(O)cc(-c3ncc4c(N5CCC[C@@](C)(O)C5)nc(OC[C@@]56CCCN5[C@H](COC(=O)N5CCC(CC7CCN(c8ccc9c(c8)n(C)c(=O)n9C8CCC(=O)NC8=O)CC7)CC5)CC6)nc4c3F)c12 (stereo partly shown)",
    "TARGET DESC": "KRAS G12D (Homo sapiens, UniProt P01116, G12D)",
    "DC50": "< 100 nM"
  },
  {
    "MOLECULE": "C[C@H]1CN(CC(=O)N2CCC(CN3CCC(c4ccc5c(c4)n(C)c(=O)n5C4CCC(=O)NC4=O)CC3)CC2)CCCN1c1nccc(-c2noc([C@]3(C)CCCc4sc(N)c(C#N)c43)n2)n1 (stereo partly shown)",
    "TARGET DESC": "KRAS G12D (Homo sapiens, UniProt P01116, G12D)",
    "DC50": "> 300 nM"
  },
  {
    "MOLECULE": "CCc1c(F)ccc2cc(O)cc(-c3ncc4c(N5CCC[C@@](C)(O)C5)nc(OC[C@@]56CCCN5[C@H](COC(=O)N5CCC7(CCC(CN8CCC(c9ccc%10c(c9)n(C)c(=O)n%10C9CCC(=O)NC9=O)CC8)CC7)CC5)CC6)nc4c3F)c12 (stereo partly shown)",
    "TARGET DESC": "KRAS G12D (Homo sapiens, UniProt P01116, G12D)",
    "DC50": "< 100 nM"
  }
]

GET /values?readout=DC50&item= CCc1c(F)ccc2cc(O)cc(-c3ncc4c(N5CCC[C@@](C)(O)C5)nc(OC[C@@]56CCCN5[C@H](CN5CCC(CN7CCC(c8ccc9c(c8)n(C)c(=O)n9C8CCC(=O)NC8=O)CC7)CC5)CC6)nc4c3F)c12 (stereo partly shown)
< 100 nM

* * *

Recorded DC50 values for a group of compounds are listed next.
molecular target: KRAS G12D (Homo sapiens, UniProt P01116, G12D); construct: AsPc-1-KRAS (G12D)-HiBit-KI cell (Pharmaron); host or cells: AsPc-1-KRAS (G12D)-HiBit-KI cells (HiBiT knock-in at the endogenous KRAS locus); experiment: KRAS G12D HiBit assay; type: cell-based; conditions: AsPc-1-KRAS (G12D)-HiBit-KI cell, compound treatment for 24 hours, absolute DC50; class symbols

GET /values?readout=DC50&item= CCc1c(F)ccc2cc(O)cc(-c3ncc4c(N5CCCOCC5)nc(OC[C@@]56CCCN5[C@H](COC(=O)N5CCC7(CC5)CC(N5CCC(c8ccc9c(c8)n(C)c(=O)n9C8CCC(=O)NC8=O)CC5)C7)CC6)nc4c3F)c12 (some centres unmarked)
< 0.1 µM

* * *

molecular target: KRAS G12V (Homo sapiens, UniProt P01116, G12V); construct: SW620-KRAS (G12V)-HiBit-KI cell (Pharmaron); host or cells: SW620-KRAS (G12V)-HiBit-KI cells (HiBiT knock-in at the endogenous KRAS locus); assay: KRAS G12V HiBit assay; format: cell-based; settings: SW620-KRAS (G12V)-HiBit-KI cells, compound treatment for 24 hours, class symbols
Sequence (P01116 1-188 isoform P01116-2 G12V): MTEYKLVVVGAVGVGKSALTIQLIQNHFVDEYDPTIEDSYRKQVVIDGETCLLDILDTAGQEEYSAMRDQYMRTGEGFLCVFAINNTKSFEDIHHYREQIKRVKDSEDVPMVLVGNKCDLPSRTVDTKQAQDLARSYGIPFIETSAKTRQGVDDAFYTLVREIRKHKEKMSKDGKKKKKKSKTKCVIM
READOUT: DC50

[
  {
    "MOLECULE": "CCc1c(F)ccc2cc(O)cc(-c3ncc4c(N5CCC[C@@](C)(O)C5)nc(OC[C@@]56CCCN5[C@H](COC(=O)N5CCC(CN7CCC(c8ccc9c(c8)n(C)c(=O)n9C8CCC(=O)NC8=O)CC7)C5)CC6)nc4c3F)c12 (some centres unmarked)",
    "OBSERVED MEASUREMENT": "< 10 nM"
  },
  {
    "MOLECULE": "CCc1c(F)ccc2cc(O)cc(-c3ncc4c(N5CCC[C@@](C)(O)C5)nc(OCC5(CN6CCN(CC7CCN(c8ccc9c(c8)n(C)c(=O)n9C8CCC(=O)NC8=O)CC7)CC6)CC5)nc4c3F)c12 (some centres unmarked)",
    "OBSERVED MEASUREMENT": "< 10 nM"
  },
  {
    "MOLECULE": "CCc1c(F)ccc2cc(O)cc(-c3ncc4c(N5CCC[C@@](C)(O)C5)nc(OC[C@@]56CCCN5[C@H](COC(=O)NC5CCN(C7CCN(c8ccc9c(c8)n(C)c(=O)n9C8CCC(=O)NC8=O)CC7)CC5)CC6)nc4c3F)c12 (some centres unmarked)",
    "OBSERVED MEASUREMENT": "10 to 100 nM"
  },
  {
    "MOLECULE": "CCc1c(F)ccc2cc(O)cc(-c3ncc4c(N5CCC[C@@](C)(O)C5)nc(OC[C@@]56CCCN5[C@H](CCCN5CCC7(CC5)CC(N5CCC(c8ccc9c(c8)n(C)c(=O)n9C8CCC(=O)NC8=O)CC5)C7)CC6)nc4c3F)c12 (some centres unmarked)",
    "OBSERVED MEASUREMENT": "10 to 100 nM"
  }
]

What is its DC50 for KRAS G12V (Homo sapiens, UniProt P01116, G12V)? Entry: C#Cc1c(F)ccc2cc(O)cc(-c3ncc4c(N5CCC[C@@](C)(O)C5)nc(OC[C@@]56CCCN5[C@H](COC(=O)N5CCN(CC#CCOc7cccc8c7n(C)c(=O)n8C7CCC(=O)NC7=O)CC5)CC6)nc4c3F)c12 (some centres unmarked)
> 100 nM

What is its DC50 for KRAS G12V (Homo sapiens, UniProt P01116, G12V)? Entry: Cn1c(=O)n(C2CCC(=O)NC2=O)c2ccc(C3CCN(CC4(F)CCN(C(=O)OC[C@@H]5CC[C@]6(COc7nc(N8CCC[C@@](C)(O)C8)c8cnc(-c9cc(O)cc%10ccc(F)cc9%10)c(F)c8n7)CCCN56)CC4)CC3)cc21 (some centres unmarked)
< 10 nM

What is its DC50 for KRAS G12V (Homo sapiens, UniProt P01116, G12V)? Entry: C#Cc1c(F)ccc2cc(O)cc(-c3ncc4c(N5CCC[C@@](C)(O)C5)nc(OC[C@@]56CCCN5[C@H](COC(=O)NC5CCN(C7CCN(c8ccc9c(c8)n(C)c(=O)n9C8CCC(=O)NC8=O)CC7)CC5)CC6)nc4c3F)c12 (some centres unmarked)
> 100 nM

What is its DC50 for KRAS G12V (Homo sapiens, UniProt P01116, G12V)? Entry: C#Cc1c(F)ccc2cc(O)cc(-c3ncc4c(N5CCC[C@@](C)(O)C5)nc(OC[C@@]56CCCN5[C@H](COC(=O)NC5CN(C7CCN(c8ccc9c(c8)n(C)c(=O)n9C8CCC(=O)NC8=O)CC7)C5)CC6)nc4c3F)c12 (some centres unmarked)
> 100 nM

What is its DC50 for KRAS G12V (Homo sapiens, UniProt P01116, G12V)? Entry: Cn1c(=O)n(C2CCC(=O)NC2=O)c2ccc(C3CCN(CC4CCN(C(=O)OC[C@@H]5CC[C@]6(COc7nc(N8CCC[C@@](C)(O)C8)c8cnc(-c9cc(O)cc%10ccc(F)c(Cl)c9%10)c(F)c8n7)CCCN56)CC4)CC3)cc21 (some centres unmarked)
< 10 nM

What is its DC50 for KRAS G12V (Homo sapiens, UniProt P01116, G12V)? Entry: CCc1c(F)ccc2cc(O)cc(-c3ncc4c(N5CCC[C@@](C)(O)C5)nc(OC[C@@]56CCCN5[C@H](COC(=O)N5CCCC5CN5CCC(c7ccc8c(c7)n(C)c(=O)n8C7CCC(=O)NC7=O)CC5)CC6)nc4c3F)c12 (some centres unmarked)
10 to 100 nM

What is its DC50 for KRAS G12V (Homo sapiens, UniProt P01116, G12V)? Entry: CCc1c(F)ccc2cc(O)cc(-c3ncc4c(N5CCC[C@@H](N)C5)nc(OC[C@@]56CCCN5[C@H](COC(=O)N5CCC7(CC5)CC(N5CCC(c8ccc9c(c8)n(C)c(=O)n9C8CCC(=O)NC8=O)CC5)C7)CC6)nc4c3F)c12 (some centres unmarked)
< 10 nM

What is its DC50 for KRAS G12V (Homo sapiens, UniProt P01116, G12V)? Entry: C#Cc1c(F)ccc2cccc(-c3ncc4c(N5CCC[C@@](C)(O)C5)nc(OCC5(CN6CCC(CN7CCN(c8cccc9c8n(C)c(=O)n9C8CCC(=O)NC8=O)CC7)CC6)CC5)nc4c3F)c12 (some centres unmarked)
> 100 nM

What is its DC50 for KRAS G12V (Homo sapiens, UniProt P01116, G12V)? Entry: C#Cc1c(F)ccc2cccc(-c3ncc4c(N5CCC[C@@](C)(O)C5)nc(OCC5(CN6CCC(CN7CCC(c8cccc9c8n(C)c(=O)n9C8CCC(=O)NC8=O)CC7)CC6)CC5)nc4c3F)c12 (some centres unmarked)
> 100 nM

Just for reference, patent US12599672B2 is where these values come from.
